Test system: Sprague-Dawley rats
Assay: Pharmacological effect and adverse reactions under the equivalent dose (2ED50), Group C compounds
Assay type: in vivo
Details: equivalent dose (2ED50), number of rats of n = 8
Outcome Measure: Adverse reaction: Systemic stiffness, Convulsions, Opisthotonus

Quote Sprague-Dawley rats Adverse reaction: Systemic stiffness, Convulsions, Opisthotonus for entry CCOC(=O)c1cncn1C(C)c1ccccc1 (centres unmarked) [Etomidate, reference compound] .
0

Quote Sprague-Dawley rats Adverse reaction: Systemic stiffness, Convulsions, Opisthotonus for entry C#CCOCC(=O)c1cc(F)nn1[C@H](C)c1ccccc1 .
0

Quote Sprague-Dawley rats Adverse reaction: Systemic stiffness, Convulsions, Opisthotonus for entry CCOCC(=O)c1c(F)ncn1[C@H](C)c1ccccc1 .
0

Quote Sprague-Dawley rats Adverse reaction: Systemic stiffness, Convulsions, Opisthotonus for entry C#CCOCC(=O)c1cncn1[C@H](C)c1ccccc1 .
7

Quote Sprague-Dawley rats Adverse reaction: Systemic stiffness, Convulsions, Opisthotonus for entry CC(=O)COCC(=O)c1cncn1[C@H](C)c1ccccc1 .
0

Quote Sprague-Dawley rats Adverse reaction: Systemic stiffness, Convulsions, Opisthotonus for entry C[C@H](c1ccccc1)n1cncc1C(=O)COC(C)(C)C .
7

Quote Sprague-Dawley rats Adverse reaction: Systemic stiffness, Convulsions, Opisthotonus for entry COCC(=O)c1cncn1[C@H](C)c1ccccc1 .
0

Quote Sprague-Dawley rats Adverse reaction: Systemic stiffness, Convulsions, Opisthotonus for entry CC#CCC(=O)c1cncn1[C@H](C)c1ccccc1 .
0

---

Tested on: Sprague-Dawley rats
Experiment: Pharmacological characteristics at equivalent doses (2ED50), Group A compounds
Type: in vivo
Conditions: 2ED50, tail vein
Outcome Measure: Righting reflex duration (min)
Field format: number, assumed min, no unit text.

Output measured Righting reflex duration for this item: C=C=CC1(OC(=O)c2c(Cl)cnn2[C@H](C)c2ccccc2)COC1
3.29

Output measured Righting reflex duration for this item: COC(=O)C1=C(OC(=O)c2cc(F)nn2[C@H](C)c2ccccc2)CCCC1
2.13

Output measured Righting reflex duration for this item: CC(C)c1cccc(C(C)C)c1O [Propofol, propofol, reference compound]
8.36

Output measured Righting reflex duration for this item: CC#CC(C)OC(=O)c1ccnn1[C@H](C)c1ccccc1 (stereo partly shown)
2.65

---

Test system: Sprague-Dawley rats
Assay: animal or person
Settings: rats
Outcome Measure: Minimal lethal dose

Output measured Minimal lethal dose for this item: C=C=CC(C)(C)OC(=O)c1ccnn1[C@H](C)c1ccccc1
>11 mg/kg

Output measured Minimal lethal dose for this item: C[C@H](c1ccccc1)n1nc(F)cc1C(=O)OC(C)(C)C
>15 mg/kg

Output measured Minimal lethal dose for this item: C[C@H](c1ccccc1)n1nccc1C(=O)OC1CSC1
>13 mg/kg

---

Tested on: Sprague-Dawley rats
Assay: Pharmacological effect and adverse reactions under the equivalent dose (2ED50), Group D compounds
Format: in vivo
Settings: equivalent dose (2 × ED50), number of rats of n = 8
Provide the reported Adverse reaction: Four limbs rigidity of each item.
Lab note: jot the number down without any unit.

Output measured Adverse reaction: Four limbs rigidity for this item: C=CCOCC(OC)(OC)C(=O)c1cncn1[C@H](C)c1ccccc1
0

Output measured Adverse reaction: Four limbs rigidity for this item: COC(OC)(OC(C)C)C(=O)c1ccnn1[C@H](C)c1ccccc1
0

Output measured Adverse reaction: Four limbs rigidity for this item: CC(C)CCOC(=O)C(=O)c1cncn1[C@H](C)c1ccccc1
2

Output measured Adverse reaction: Four limbs rigidity for this item: CCOC(=O)C(=O)c1cncn1[C@H](C)c1ccccc1
1

Output measured Adverse reaction: Four limbs rigidity for this item: CCOC(OCC)(OCC)C(=O)c1cncn1[C@H](C)c1ccccc1
2

Output measured Adverse reaction: Four limbs rigidity for this item: COC(OC)(OC)C(=O)c1cc(F)nn1[C@H](C)c1ccccc1
1
